- Test system: Chryseobacterium indologenes
- protocol notes: Antimicrobial activity against Chryseobacterium indologenes 597 expressing metallo-beta-lactamase IND-6 after 18 hrs by broth microdilution method
- Type: functional
- experimental setup: Chryseobacterium indologenes, 597, 18 h
Values of MIC strictly less than 8 µg/mL map to label 1, and values of at least 8 µg/mL map to label 0.

Solved entries:
>>> print(df.to_string())
                                   molecule  assigned_category
0  CCN1CCN(C(=O)N[C@@H](C(=O)N[C@@H]2C(=O)N3[C@@H]2SC(C)(C)[C@@H]3C(=O)O)c2ccccc2)C(=O)C1=O            label 1
1  CO[C@@]1(NC(=O)Cc2cccs2)C(=O)N2C(C(=O)O)=C(COC(N)=O)CS[C@@H]21            label 0
2  C[C@@H](O)[C@H]1C(=O)N2C(C(=O)O)=C(SCCNC=N)C[C@H]12 [IMIPENEM ANHYDROUS]            label 0
3  CO/N=C(\C(=O)N[C@@H]1C(=O)N2C(C(=O)O)=C(COC(N)=O)CS[C@H]12)c1ccco1            label 0
4  CO/N=C(\C(=O)N[C@@H]1C(=O)N2C(C(=O)[O-])=C(C[N+]3(C)CCCC3)CS[C@H]12)c1csc(N)n1 [CEFEPIME]            label 1

Q) hey, is MIC for `CC(=O)OCC1=C(C(=O)O)N2C(=O)[C@@H](NC(=O)Cc3cccs3)[C@H]2SC1` lower than 8 µg/mL or not?
A) label 0

Q) Consider the molecule `CC1(C)S[C@@H]2[C@H](NC(=O)[C@H](N)c3ccccc3)C(=O)N2[C@H]1C(=O)O` . Is its MIC strictly less than 8 µg/mL?
A) label 0

Q) Dear colleague, could you confirm whether MIC of `CO/N=C(\C(=O)N[C@@H]1C(=O)N2C(C(=O)O)=C(COC(C)=O)CS[C@H]12)c1csc(N)n1` falls below 8 µg/mL? Thanks.
A) label 0

The reported measurements were obtained from ChEMBL document CHEMBL1649237.
